- Tested on: LNCap
- Applied conditions: human, 72 h
Measured metric: IC50 (µM)

Some entries whose results are on file:
[[record]]
chemical_string = "O=C(NO)c1ccc(Cn2c(=O)n(CCc3cccs3)c(=O)c3ccccc32)cc1"
unit_annotation = "µM"
numeric_readout = 3.83

[[record]]
chemical_string = "O=C(NO)c1ccc(Cn2c(=O)n(CCc3ccccc3)c(=O)c3ccc(Cl)cc32)cc1"
unit_annotation = "µM"
numeric_readout = 1.07

[[record]]
chemical_string = "O=C(NO)c1ccc(Cn2c(=O)n(CCc3ccccc3)c(=O)c3ccc(O)cc32)cc1"
unit_annotation = "µM"
numeric_readout = 2.97


A. Cn1c(=O)c2ccc(Cl)cc2n(Cc2ccc(C(=O)NO)cc2)c1=O
B. O=C(Cc1ccc(Cn2c(=O)n(CCc3ccccc3)c(=O)c3ccccc32)c(F)c1)NO
Ask | Pick the one with the larger IC50: A vs B Reply briefly: the label of your chosen item.
Reply | A
(A: 4.72 µM, B: 1.87 µM)

====

Measured IC50 (Human HDAC11 (Homo sapiens (Human), UniProt Q96DB2))
Measured metric: IC50 (µM)

1. O=C(NO)c1ccc(Cn2c(=O)n(CCc3ccccc3)c(=O)c3ccc(C4CC4)cc32)cc1
2. O=C(NO)c1ccc(Cn2c(=O)n(CCc3ccccc3)c(=O)c3ccc(F)cc32)cc1
Ask | Pick the one with the larger IC50: 1 vs 2 Reply briefly: the label of your chosen item.
Reply | 2

P. O=C(NO)c1ccc(Cn2c(=O)n(CCc3cccs3)c(=O)c3ccccc32)cc1
Q. Cc1ccc2c(=O)n(CCc3ccccc3)c(=O)n(Cc3ccc(C(=O)NO)cc3)c2c1
Ask | # compare IC50 for P vs Q ; return the one with the smaller value Reply briefly: the label of your chosen item.
Reply | P

====

- Assay: in vitro
- Applied conditions: monkey
Measured metric: IC50 at 72 h (µM)

Some entries whose results are on file:
[[record]]
chemical_string = "O=C(NO)c1ccc(Cn2c(=O)n(CCc3cccc(F)c3)c(=O)c3ccccc32)cc1"
measured_metric = "IC50 at 72 h"
numeric_readout = 93.3

[[record]]
chemical_string = "O=C(NO)c1ccc(Cn2c(=O)n(CCc3cccs3)c(=O)c3ccccc32)cc1"
measured_metric = "IC50 at 72 h"
numeric_readout = 76.3

[[record]]
chemical_string = "N#Cc1ccc2c(=O)n(CCc3ccccc3)c(=O)n(Cc3ccc(CC(=O)NO)cc3)c2c1"
measured_metric = "IC50 at 72 h"
numeric_readout = 95.3

[[record]]
chemical_string = "O=C(NO)c1cc(Cn2c(=O)n(CCc3ccccc3)c(=O)c3ccccc32)cs1"
measured_metric = "IC50 at 72 h"
numeric_readout = 106

[[record]]
chemical_string = "O=C(NO)c1ccc(Cn2c(=O)n(CCc3ccccc3)c(=O)c3ccc(Cl)cc32)cc1"
measured_metric = "IC50 at 72 h"
numeric_readout = 85.7

[[record]]
chemical_string = "Cc1ccc2c(=O)n(CCc3ccccc3)c(=O)n(Cc3ccc(C(=O)NO)cc3)c2c1"
measured_metric = "IC50 at 72 h"
numeric_readout = 127


1. O=C(NO)c1ccc(Cn2c(=O)n(CCc3ccc(F)cc3)c(=O)c3ccccc32)cc1
2. O=C(Cc1ccc(Cn2c(=O)n(CCc3ccccc3)c(=O)c3ccccc32)c(F)c1)NO
3. O=C(NO)c1cccc(Cn2c(=O)n(CCc3ccccc3)c(=O)c3ccccc32)c1
Ask | Please rank these compounds by IC50 at 72 h in descending order. Answer by listing the labels in the requested order.
Reply | 1, 3, 2

P. O=C(NO)c1ccc(Cn2c(=O)n(CCc3ccccc3)c(=O)c3ccsc32)cc1
Q. O=C(NO)c1ccc(Cn2c(=O)n(CCc3ccccc3)c(=O)c3ccc(O)cc32)cc1
Ask | # compare IC50 at 72 h for P vs Q ; return the one with the smaller value Reply briefly: the label of your chosen item.
Reply | P

====

- System: MOLM13
- Assay: Cell proliferation assay MTT, MOLM13
- Applied conditions: human, MOLM13 leukemia cells, 72 h
Measured metric: IC50 (nM)
All answers are understood in nM, so give the number only.

Ask | Need IC50 of O=C(NO)c1ccc(Cn2c(=O)n(CCc3ccccc3)c(=O)c3cc(F)ccc32)cc1 , thanks.
Reply | 356000

====

- Assay: in vitro
- Applied conditions: human
Measured metric: IC50 at 72 h (µM)

Some entries whose results are on file:
[[record]]
compound = "O=C(NO)c1ccc(Cn2c(=O)n(CCc3cccs3)c(=O)c3ccccc32)cc1 [Compound 24]"
measured_metric = "IC50 at 72 h"
numeric_readout = 60.4

[[record]]
compound = "O=C(Cc1ccc(Cn2c(=O)n(CCc3ccccc3)c(=O)c3ccccc32)c(F)c1)NO [Compound 19]"
measured_metric = "IC50 at 72 h"
numeric_readout = 32.7

[[record]]
compound = "Cn1c(=O)c2ccc(Cl)cc2n(Cc2ccc(C(=O)NO)cc2)c1=O [Compound 10]"
measured_metric = "IC50 at 72 h"
numeric_readout = 85.3

[[record]]
compound = "O=C(NO)c1ccc(Cn2c(=O)n(CCc3ccccc3)c(=O)c3cccnc32)cc1 [Compound 12]"
measured_metric = "IC50 at 72 h"
numeric_readout = 159

[[record]]
compound = "O=C(NO)c1ccc(Cn2c(=O)n(CCc3ccccc3)c(=O)c3ccc(O)cc32)cc1 [Compound 4]"
measured_metric = "IC50 at 72 h"
numeric_readout = 147

[[record]]
compound = "O=C(NO)c1cccc(Cn2c(=O)n(CCc3ccccc3)c(=O)c3ccccc32)c1 [Compound 6]"
measured_metric = "IC50 at 72 h"
numeric_readout = 69.2

[[record]]
compound = "O=C(NO)c1ccc(Cn2c(=O)n(CCc3cccc(F)c3)c(=O)c3ccccc32)cc1 [Compound 26]"
measured_metric = "IC50 at 72 h"
numeric_readout = 84.3

[[record]]
compound = "O=C(NO)c1ccc(Cn2c(=O)n(CCc3ccccc3)c(=O)c3ccsc32)cc1 [Compound 21]"
measured_metric = "IC50 at 72 h"
numeric_readout = 63.1


P. Cc1ccc2c(=O)n(CCc3ccccc3)c(=O)n(Cc3ccc(C(=O)NO)cc3)c2c1 [Compound 22]
Q. N#Cc1ccc2c(=O)n(CCc3ccccc3)c(=O)n(Cc3ccc(CC(=O)NO)cc3)c2c1 [Compound 23]
Ask | Pick the one with the larger IC50 at 72 h: P vs Q Reply briefly: the label of your chosen item.
Reply | P
(P: 135 µM, Q: 92.1 µM)

1. O=C(NO)c1ccc(Cn2c(=O)n(Cc3ccccc3)c(=O)c3ccccc32)cc1 [Compound 11]
2. O=C(Cc1ccc(Cn2c(=O)n(CCc3ccccc3)c(=O)c3ccccc32)cc1)NO [Compound 16]
Ask | Pick the one with the larger IC50 at 72 h: 1 vs 2 Reply briefly: the label of your chosen item.
Reply | 2

====

// reported pIC50 for each item listed
- Test system: HL60
- Assay: Cell proliferation assay MTT, HL60
- Applied conditions: read-out: Cytotoxicity IC50 Leukemia HL60, 72 hr treated
// pIC50: -log10(molar conc.)

Some entries whose results are on file:
[[record]]
compound = "O=C(NO)c1ccc(Cn2c(=O)n(CCc3ccccc3)c(=O)c3ccc(O)cc32)cc1 [Compound 4]"
numeric_readout = 6.17

[[record]]
compound = "O=C(NO)c1ccc(Cn2c(=O)n(CCc3ccccc3)c(=O)c3cc(Cl)ccc32)cc1 [Compound 9]"
numeric_readout = 5.57

[[record]]
compound = "O=C(NO)c1ccc(Cn2c(=O)n(CCc3ccccc3)c(=O)c3ccccc32)cc1 [Compound 5]"
numeric_readout = 6.60

[[record]]
compound = "Cc1ccc2c(=O)n(CCc3ccccc3)c(=O)n(Cc3ccc(C(=O)NO)cc3)c2c1 [Compound 22]"
numeric_readout = 5.84

[[record]]
compound = "O=C(NO)c1ccc(Cn2c(=O)n(CCc3ccccc3)c(=O)c3ccc(C(F)(F)F)cc32)cc1 [Compound 13]"
numeric_readout = 6.06


Ask | Need pIC50 of O=C(NO)c1ccc(Cn2c(=O)n(CCc3ccccc3)c(=O)c3ccc(Cl)cc32)cc1 [Compound 8] , thanks.
Reply | 6.36

====

Measured pIC50 (Human HDAC8 (Homo sapiens (Human)))
pIC50: −log10 of the molar value.
Measured metric: pIC50

Some entries whose results are on file:
[[record]]
chemical_string = "O=C(NO)c1ccc(Cn2c(=O)n(CCc3ccccc3)c(=O)c3ccc(C(F)(F)F)cc32)cc1"
target_of_assay = "Human HDAC8 (Homo sapiens (Human))"
numeric_readout = 5.84

[[record]]
chemical_string = "O=C(NO)c1cc(Cn2c(=O)n(CCc3ccccc3)c(=O)c3ccccc32)cs1"
target_of_assay = "Human HDAC8 (Homo sapiens (Human))"
numeric_readout = 5.92

[[record]]
chemical_string = "O=C(NO)c1cccc(Cn2c(=O)n(CCc3ccccc3)c(=O)c3ccccc32)c1"
target_of_assay = "Human HDAC8 (Homo sapiens (Human))"
numeric_readout = 6.19

[[record]]
chemical_string = "N#Cc1ccc2c(=O)n(CCc3ccccc3)c(=O)n(Cc3ccc(C(=O)NO)cc3)c2c1"
target_of_assay = "Human HDAC8 (Homo sapiens (Human))"
numeric_readout = 5.89

[[record]]
chemical_string = "O=C(NO)c1ccc(Cn2c(=O)n(CCc3ccccc3O)c(=O)c3ccccc32)cc1"
target_of_assay = "Human HDAC8 (Homo sapiens (Human))"
numeric_readout = 6.40


a. O=C(NO)c1ccc(Cn2c(=O)n(CCc3ccc(N4CCOCC4)cc3)c(=O)c3ccccc32)cc1
b. O=C(NO)c1ccc(Cn2c(=O)n(CCc3ccccc3)c(=O)c3ccc(O)cc32)cc1
c. O=C(NO)c1ccc(Cn2c(=O)n(CCc3ccccc3)c(=O)c3ccc(F)cc32)cc1
Ask | Arrange the 3 compounds by rising pIC50, starting with the smallest. Answer by listing the labels in the requested order.
Reply | b, a, c
(b: 5.56, a: 6.01, c: 7.02)
